All values here come from the OligoGym collection.

# assay-system: LY6K; further: reference of the scale not given here
# experiment-summary: pooled miR-30 sensor sort-seq; sequence = guide strand
# experimental-conditions: shRNA
property-measured: sensor-assay potency score (higher = more potent)
Give bare numbers.

TCTTTGAACACTGATGAGTTGA :: -0.353
TCTCCATCGCTGCACAACCAGC :: -1.92
TAGCGAATTTTACAACACTTGA :: -0.625
TTGAACACTGATGAGTTGATAG :: -0.979
AATTTTACAACACTTGAGGTAA :: -0.3

# per-item lookup of sensor-assay potency score (higher = more potent); items listed below
1. TATTCTTTGAACACTGATGAGT
2. AAACATGACACCACACTCTATT
3. TCTCTCACAAACATGACACCAC

**A:**
[-0.623, -0.883, 0.0962]
